pIC50: −log10 of the molar value.
Assay read-out pIC50; system under study: CDK6/cyclin D3 (Homo sapiens, UniProt Q00534).
Sequence (P30281 whole entry): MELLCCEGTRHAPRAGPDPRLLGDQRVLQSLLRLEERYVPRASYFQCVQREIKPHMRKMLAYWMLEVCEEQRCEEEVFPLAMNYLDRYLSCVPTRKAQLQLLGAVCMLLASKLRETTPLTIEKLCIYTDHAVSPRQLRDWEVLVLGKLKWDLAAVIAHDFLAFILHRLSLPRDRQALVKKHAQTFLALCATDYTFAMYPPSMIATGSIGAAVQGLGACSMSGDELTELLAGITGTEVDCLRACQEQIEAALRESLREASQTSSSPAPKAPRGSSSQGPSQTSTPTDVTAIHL
Sequence (Q00534 whole entry): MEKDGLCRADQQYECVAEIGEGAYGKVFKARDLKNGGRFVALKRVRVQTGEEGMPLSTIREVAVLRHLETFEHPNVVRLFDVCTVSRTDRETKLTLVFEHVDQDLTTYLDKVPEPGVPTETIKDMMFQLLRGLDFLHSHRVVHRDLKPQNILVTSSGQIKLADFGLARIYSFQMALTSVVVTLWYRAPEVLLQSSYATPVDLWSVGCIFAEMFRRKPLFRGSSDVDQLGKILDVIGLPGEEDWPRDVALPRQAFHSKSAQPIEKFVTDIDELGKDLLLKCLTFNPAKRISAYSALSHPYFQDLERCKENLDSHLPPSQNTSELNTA
readoutName: pIC50

Cc1ccc(CNc2nc(Nc3ccc(N4CCN(C)CC4)cn3)ncc2Cl)cc1 :: 5.98
Cc1ccccc1Nc1nc(Nc2ccc(N3CCN(C)CC3)cc2)ncc1Cl :: 6.84
CN1CCN(c2ccc(Nc3ncc(Cl)c(NCc4ccc(C(F)(F)F)cc4)n3)nc2)CC1 :: 5.05
CN1CCN(c2ccc(Nc3ncc(Cl)c(NCCc4ccccc4F)n3)nc2)CC1 :: 5.43
CN1CCN(c2ccc(Nc3ncc(Cl)c(Nc4ccc(C(C)(C)C)cc4)n3)nc2)CC1 :: 6.13
Cc1ccccc1Nc1nc(Nc2ccc(N3CCOCC3)cc2)ncc1Cl :: 5.77
Cc1ccc(Nc2nc(Nc3ccc(N4CCN(C)CC4)cn3)ncc2Cl)cc1 :: 7.06
COc1cccc(Nc2nc(Nc3ccc(N4CCN(C)CC4)cn3)ncc2Cl)c1 :: 6.99

From: ChEMBL document CHEMBL4602695
